- Subject of test: Recombinant IKKα (Homo sapiens)
- Construct: purchased Millipore, Dundee, UK
- Sequence (O15111 1-745): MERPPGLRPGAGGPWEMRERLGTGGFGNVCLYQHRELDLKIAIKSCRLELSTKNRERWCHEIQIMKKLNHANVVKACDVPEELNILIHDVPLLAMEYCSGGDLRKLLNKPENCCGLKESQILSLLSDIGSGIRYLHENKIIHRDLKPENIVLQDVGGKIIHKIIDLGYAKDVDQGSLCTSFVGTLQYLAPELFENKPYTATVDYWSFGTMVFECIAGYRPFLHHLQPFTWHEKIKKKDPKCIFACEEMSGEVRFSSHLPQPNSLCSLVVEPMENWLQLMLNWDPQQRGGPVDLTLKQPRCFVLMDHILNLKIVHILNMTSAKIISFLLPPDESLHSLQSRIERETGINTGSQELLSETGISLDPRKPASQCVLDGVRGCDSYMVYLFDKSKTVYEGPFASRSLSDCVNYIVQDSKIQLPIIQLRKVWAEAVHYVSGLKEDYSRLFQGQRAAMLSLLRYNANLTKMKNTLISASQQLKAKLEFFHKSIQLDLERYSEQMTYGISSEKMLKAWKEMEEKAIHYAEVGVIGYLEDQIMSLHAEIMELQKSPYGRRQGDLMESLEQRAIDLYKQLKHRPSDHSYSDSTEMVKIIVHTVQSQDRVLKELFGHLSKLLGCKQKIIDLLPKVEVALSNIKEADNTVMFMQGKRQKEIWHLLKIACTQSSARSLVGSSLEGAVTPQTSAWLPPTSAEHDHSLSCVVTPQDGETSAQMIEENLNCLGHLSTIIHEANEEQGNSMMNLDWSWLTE
- Test summary: DELFIA IKKα kinase assay (apparent Ki, Cheng-Prusoff)
- Type: biochemical
- Condition summary: DELFIA assay (first line of an example)
- Description: IKKα and IKKβ inhibitory activity was determined using three different assays: a dissociation enhanced ligand fluorescent immunoassay (DELFIA) based on the protocol of HTScan™ IKKβ Kinase Assay (Cell Signaling Technology, USA); an Adapta IKKα assay (performed by Life Technologies); a Z′-LYTE™ IKKβ assay (performed by Life Technologies). […]
Value kind: Ki (nM)

Guide cases for Ki, answers given:
smiles_code=CC(C)(C)C#Cc1cc(-c2ccnc3[nH]c(CN4CCOCC4)cc23)cc2c(N)n[nH]c12 value_measured=13
smiles_code=CC(C)(O)C#Cc1cc(-c2ccnc(NC3COC3)c2)cc2c(N)n[nH]c12 value_measured=93
smiles_code=Nc1n[nH]c2ccc(-c3ccnc4[nH]c(C(=O)N5CCCC5)cc34)cc12 value_measured=19
smiles_code=Cn1ccc(Nc2cc(-c3cc(C#CC(C)(C)C)c4[nH]nc(N)c4c3)ccn2)n1 value_measured=62
smiles_code=Nc1n[nH]c2c(C#CCCOc3ccccc3)cc(-c3ccnc4[nH]ccc34)cc12 value_measured=16
smiles_code=CC(C)(C)OCc1cc2c(-c3ccc4[nH]nc(N)c4c3)ccnc2[nH]1 value_measured=29
smiles_code=COC(=O)Nc1cc(-c2cc(-c3ccc(O)cc3)c3[nH]nc(N)c3c2)ccn1 value_measured=9.8
smiles_code=CC(C)(C)C#Cc1cc(-c2ccnc3[nH]c(C(F)(F)F)nc23)cc2c(N)n[nH]c12 value_measured=223

[I] CC(C)(C)C#Cc1cc(-c2ccnc3[nH]c(C(C)(C)C)cc23)cc2c(N)n[nH]c12
[II] COC(=O)Nc1cc(-c2cc(C#CC3(O)CCCC3)c3[nH]nc(N)c3c2)ccn1
Pick one, I or II : lowest reported Ki. Refer to your chosen item by its label in the answer.
II
(II: 64 nM, I: 449 nM)

[A] CC(C)(C)C#Cc1cc(-c2ccnc(NC#N)c2)cc2c(N)n[nH]c12
[B] CC(C)(O)CCc1cc(-c2ccnc(NC(=O)C3CC3)c2)cc2c(N)n[nH]c12
[C] CC(C)(C)C#Cc1cc(-c2ccnc(Nc3c[nH]cn3)c2)cc2c(N)n[nH]c12
[D] CN(C)CCNCc1cc2c(-c3ccc4[nH]nc(N)c4c3)ccnc2[nH]1
Sequence the entries by Ki, beginning with the highest number. Your answer should be the labels, listed in the requested order.
A, C, D, B
(A: 421 nM, C: 66 nM, D: 30 nM, B: 9 nM)

[A] CC(C)OCCCNCc1cc2c(-c3ccc4[nH]nc(N)c4c3)ccnc2[nH]1
[B] CN1CCN(Cc2cc3c(-c4ccc5[nH]nc(N)c5c4)ccnc3[nH]2)CC1
[C] CC(C)(O)c1cc2c(-c3ccc4[nH]nc(N)c4c3)ccnc2[nH]1
Sequence the entries by Ki, beginning with the highest number. Your answer should be the labels, listed in the requested order.
B, A, C
